System: RV Wa (G1P[8]) strain
Experiment: In vitro assay of RV replication inhibition (PFA)
Format: cell-based, Rotavirus
Conditions: Rotavirus; Wa strain in MA104 cells, representative experiment, 24 h, PFA; read-out: IC50 (Fig 1B plot)

| compound | IC50, nM |
| --- | --- |
| COC1=C2C[C@@H](C)C[C@H](OC)[C@H](O)[C@@H](C)/C=C(\C)[C@H](OC(N)=O)[C@@H](OC)/C=C\C=C(/C)C(=O)NC(=CC1=O)C2=O [GA, geldanamycin] | 10.1 |

* * *

System: RV Wa (G1P[8]) strain
Assay: In vitro assay of RV replication inhibition (PFA)
Format: cell-based, Rotavirus
Conditions: Rotavirus; Wa strain in Caco-2 cells, representative experiment, 24 h, PFA; read-out: IC50 (Fig 1B plot)
pIC50: −log10 of the molar value.

| compound.structure.string | study.system | pIC50 |
| --- | --- | --- |
| COC1=C2C[C@@H](C)C[C@H](OC)[C@H](O)[C@@H](C)/C=C(\C)[C@H](OC(N)=O)[C@@H](OC)/C=C\C=C(/C)C(=O)NC(=CC1=O)C2=O | RV Wa (G1P[8]) strain | 7.04 |

* * *

Assay: Cytotoxicity assay (CCK-8)
Format: cell-based, Human
Conditions: human, CC50
Method: To evaluate the cytotoxicity of different HSP90 inhibitors in vitro, 10,000 MA104 cells, 30,000 Caco-2 cells, and 80,000 HT-29 cells in 100 µL complete DMEM medium were seeded in 96-well plates and cultured at 37°C and 5% CO2 for 24 h to reach about 100% confluence, and a cell-free control was also set. After removing the initial medium, 100 µL of complete DMEM medium containing the indicated concentrations of drugs was added to each well, and the plates were incubated at 37°C and 5% CO2. […]
measurement.type: CC50 at 24 h

| molecule | observed |
| --- | --- |
| COC1=C2C[C@@H](C)C[C@H](OC)[C@H](O)[C@@H](C)/C=C(\C)[C@H](OC(N)=O)[C@@H](OC)/C=C\C=C(/C)C(=O)NC(=CC1=O)C2=O [GA, geldanamycin] | < 40 µM |

* * *

Tested on: RV Wa (G1P[8]) strain
Experiment: In vitro assay of RV replication inhibition (PFA)
Format: cell-based, Rotavirus
Conditions: Wa strain in Caco-2 cells, MOI = 1, 24 h p.i., PFA; read-out: IC50
pIC50: −log10 of the molar value.

| compound.structure.string | study.system | pIC50 |
| --- | --- | --- |
| COc1cccc(-c2cc(F)ccc2[C@H]2Cc3nc(N)nc(C)c3C(=O)N2)n1 | RV Wa (G1P[8]) strain | 8.40 |

* * *

Tested on: RV Wa (G1P[8]) strain
Experiment: In vitro assay of RV replication inhibition (PFA)
Assay type: cell-based, Rotavirus
Conditions: Wa strain in HT-29 cells, MOI = 1, 24 h p.i., PFA; read-out: IC50
pIC50: −log10 of the molar value.

| compound.structure.string | pIC50 |
| --- | --- |
| COc1cccc(-c2cc(F)ccc2[C@H]2Cc3nc(N)nc(C)c3C(=O)N2)n1 | 8.33 |

* * *

Assay: Cytotoxicity assay (CCK-8)
Assay type: cell-based, Rhesus monkey
Conditions: rhesus monkey, CC50
measurement.type: CC50 at 24 h

| compound.structure.string | measurement.type | observed |
| --- | --- | --- |
| COC1=C2C[C@@H](C)C[C@H](OC)[C@H](O)[C@@H](C)/C=C(\C)[C@H](OC(N)=O)[C@@H](OC)/C=C\C=C(/C)C(=O)NC(=CC1=O)C2=O | CC50 at 24 h | < 40 µM |
